Some compounds, each annotated with its measured IC50.
Tested on: Influenza virus A/WSN/33 (H1N1)
Test: microbe, parasite or virus in culture
Assay type: cell-based
Details: 72 h; viral strain: Influenza virus A/WSN/33 (H1N1); Cell: MDBK; […]; 3 days; read-out: IC50
Report as a plain number; the unit ng/mL is understood.

> print(dat)
                                   compound  reported
1  C[C@H]1CC[C@H]2C(C)(C)[C@@H](NS(C)(=O)=O)CC[C@]23Oc2c(c(O)cc4c2CNC4=O)C[C@]13C [Compound (47c)]        10
2  CC(=O)O[C@H]1C[C@@]23Oc4c(c(O)cc5c4CNC5=O)C[C@]2(C)[C@@H](C)CC[C@H]3C(C)(C)[C@H]1O [Compound (50b)]        10

stdin: What value of IC50 has been reported for the following compound? C[C@H]1CC[C@H]2C(C)(C)[C@@H](OC(=O)c3cccnc3)CC[C@]23Oc2c(c(O)cc4c2CNC4=O)C[C@]13C [Compound (35a)]
stdout: 1

stdin: Also check C[C@H]1CC[C@H]2C(C)(C)[C@@H](O)[C@@H](O)C[C@]23Oc2c(c(O)cc4c2CNC4=O)C[C@]13C [Compound (50a)]
stdout: 4

stdin: Also check C[C@H]1CC[C@H]2C(C)(C)[C@@H](O)[C@@H](OS(C)(=O)=O)C[C@]23Oc2c(c(O)cc4c2CNC4=O)C[C@]13C [Compound (50d)]
stdout: 1.6

Taken from patent EP0855398B1.
